# measured.target: human GLP-1 receptor (human, UniProt P43220 24-463)
# protocol.text: cell-based or functional assay
Bridge positions count the residues as written; N and C are the ends. Square brackets hold non-standard residues; d marks the D form. Ends that are not written are not given here. * marks the point of attachment. Acetyl(2-(4-imidazolyl)) = O=C(Cc1c[nH]cn1)*; Aib = CC(C)(N)C(=O)O
observation.type: In vitro activity compared to native peptide (%) vs GLP-1

binder	value.observed
H[Aib]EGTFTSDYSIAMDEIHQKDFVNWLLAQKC (bridge 16-20) [Triple agonist of SEQ ID NO: 79]	41.5%
{Acetyl(2-(4-imidazolyl))}-[Aib]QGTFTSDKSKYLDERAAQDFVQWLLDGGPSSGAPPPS [Triple agonist of SEQ ID NO: 62]	5.2%
H[Aib]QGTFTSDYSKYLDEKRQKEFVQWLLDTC (bridge 16-20) [Triple agonist of SEQ ID NO: 52]	44.1%
H[Aib]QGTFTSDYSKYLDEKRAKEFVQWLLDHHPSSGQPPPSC (bridge 16-20) [Triple agonist of SEQ ID NO: 50]	67.4%
Y[Aib]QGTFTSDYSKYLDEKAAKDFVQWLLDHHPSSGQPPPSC (bridge 16-20) [Triple agonist of SEQ ID NO: 77]	38.7%
H[Aib]QGTFTSDKSKYLDECAAQDFVQWLLDGGPSSGAPPPS [Triple agonist of SEQ ID NO: 41]	34.3%
{Acetyl(2-(4-imidazolyl))}-[Aib]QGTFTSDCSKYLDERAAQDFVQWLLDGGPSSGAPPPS [Triple agonist of SEQ ID NO: 63]	15.3%
{Acetyl(2-(4-imidazolyl))}-[Aib]QGTFTSDKSSYLDERAAQDFVQWLLDGGPSSGAPPPSS [Triple agonist of SEQ ID NO: 38]	2.3%
H[Aib]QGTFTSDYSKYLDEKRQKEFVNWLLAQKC (bridge 16-20) [Triple agonist of SEQ ID NO: 34]	19.1%
Y[Aib]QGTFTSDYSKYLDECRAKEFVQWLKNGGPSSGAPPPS (bridge 16-20) [Triple agonist of SEQ ID NO: 24]	41.2%
Y[Aib]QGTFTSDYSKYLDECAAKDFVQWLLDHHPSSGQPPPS (bridge (positions not given here); ends not checked; also: ring formation between underlined amino acids, places not given here) [Triple agonist of SEQ ID NO: 67]	28.5%
